Reference for the values: patent EP4768499A1

For each entry below, report its Mouse Hepatic Microsome CLh,int NADPH(-) value.
experiment: Metabolic stability test: liver microsomal stability assay; format: in vitro ADME, mouse; conditions: mouse liver microsomes 0.5 mg protein/mL, compound 1 µM, absence of NADPH
Starred links: 1 amine or outer side, 2 acyl side, 3 side chain; linkers in the order of their positions; H or OH if unused. Positions of bridges follow the written chain, without caps; N, C: chain ends. Non-standard residues stand in square brackets, D forms with d. Residues, ends and D or L forms follow the SMILES beside them. *: point of attachment. NMedβ3hAla = C[C@H](CC(=O)[*:2])N(C)[*:1]; NMeF = CN[C@@H](Cc1ccccc1)C(=O)O; NMeGABA = CN(CCCC(=O)[*:2])[*:1]; NMeT = CN[C@H](C(=O)O)[C@@H](C)O; NMeL = CN[C@@H](CC(C)C)C(=O)O; NMeV = CN[C@H](C(=O)O)C(C)C; d(β3hA) = C[C@@H](N)CC(=O)O; NMeAbu = CC[C@H](NC)C(=O)O; NMeA = CN[C@@H](C)C(=O)O; Piperidide = C1CCN(*)CC1; Abu = CC[C@H](N)C(=O)O; Sar = CNCC(=O)O; tBu = CC(C)(C)*
Answer with a number only, understood to be in µL/min/mg Protein.

Problem: What value of measured Mouse Hepatic Microsome CLh,int NADPH(-) is listed for CC[C@H]1C(=O)N(C)[C@@H](Cc2ccccc2)C(=O)N(C)[C@@H](CC(C)C)C(=O)N[C@@H](CC(C)C)C(=O)N(C)[C@@H](C(C)C)C(=O)N[C@H](C)CC(=O)N(C)CC(=O)N(C)[C@@H](C(C)C)C(=O)N(C)[C@@H](CC(C)C)C(=O)N(C)[C@@H](C)C(=O)N(C)[C@@H](CC(C)C)C(=O)N[C@@H]([C@@H](C)O)C(=O)N(C)CC(=O)N1C [pd140] (cyclo(L[NMeV][d(β3hA)][Sar][NMeV][NMeL][NMeA][NMeL]T[Sar][NMeAbu][NMeF][NMeL])) ?
Result: 10.3

Problem: What value of measured Mouse Hepatic Microsome CLh,int NADPH(-) is listed for CC[C@@H]1NC(=O)[C@H](CC(C)C)N(C)C(=O)[C@H](COC(C)(C)C)NC(=O)[C@H](Cc2ccccc2)N(C)C(=O)[C@H](CC)NC(=O)[C@H](Cc2ccccc2)N(C)C(=O)[C@H](C)N(C)C(=O)[C@H](CC(C)C)N(C)C(=O)[C@H](CC(C)C)NC(=O)CCCN(C)C(=O)C[C@@H](C(=O)N2CCCCC2)NC(=O)[C@H](CC(C)C)N(C)C(=O)[C@H](C(C)C)NC(=O)[C@H](C)N(C)C1=O [pd016] ([NMeGABA]L[NMeL][NMeA][NMeF][Abu][NMeF]S(tBu)[NMeL][Abu][NMeA]V[NMeL]D-Piperidide; lactam N-14) ?
Result: 32.9

Problem: What value of measured Mouse Hepatic Microsome CLh,int NADPH(-) is listed for CC[C@H](C)[C@@H]1NC(=O)[C@H](CC(C)C)N(C)C(=O)C[C@@H](C)NC(=O)[C@H](C(C)C)N(C)C(=O)[C@H](COC(C)(C)C)NC(=O)[C@H](CC)N(C)C(=O)[C@H](Cc2ccccc2)N(C)C(=O)[C@H](CC(C)C)NC(=O)[C@@H]2CCCN2C(=O)[C@H]([C@@H](C)O)N(C)C(=O)[C@H](CC(C)C)N(C)C(=O)[C@H](CC)N(C)C(=O)[C@H](C(C)C)NC(=O)[C@H](CC(C)C)N(C)C1=O [pd057] (cyclo(I[NMeL]V[NMeAbu][NMeL][NMeT]PL[NMeF][NMeAbu]S(tBu)[NMeV][d(β3hA)][NMeL])) ?
Result: 44.8

Problem: What value of measured Mouse Hepatic Microsome CLh,int NADPH(-) is listed for CC[C@@H]1NC(=O)[C@H]([C@@H](C)O)NC(=O)[C@H](Cc2ccccc2)N(C)C(=O)[C@H](CC(C)C)N(C)C(=O)[C@H](C(C)C)N(C)C(=O)[C@H](CC)N(C)C(=O)[C@H]([C@@H](C)CC)NC(=O)[C@H](CC(C)C)N(C)C(=O)[C@H](C)N(C)C(=O)[C@H](C)NC(=O)C[C@@H](C)N(C)C(=O)[C@H](CC(C)C)N(C)C(=O)[C@H](C)N(C)C(=O)CN(C)C1=O [pd072] (cyclo(A[NMeA][NMeL]I[NMeAbu][NMeV][NMeL][NMeF]T[Abu][Sar][NMeA][NMeL][NMedβ3hAla])) ?
Result: 16.6

---

tested on: Caco-2 cells; experiment: Membrane permeability test using Caco-2 cells with preincubation; format: in vitro ADME; settings: preincubation 20 to 24 hours; Apical FaSSIF/HBSS pH 6.0, Basal HBSS 4% BSA pH 7.4; 180 minutes
Starred links: 1 amine or outer side, 2 acyl side, 3 side chain; linkers in the order of their positions; H or OH if unused. Positions of bridges follow the written chain, without caps; N, C: chain ends. Non-standard residues stand in square brackets, D forms with d. Residues, ends and D or L forms follow the SMILES beside them. *: point of attachment. NMeF = CN[C@@H](Cc1ccccc1)C(=O)O; NMeGABA = CN(CCCC(=O)[*:2])[*:1]; NMeI = CC[C@H](C)[C@H](NC)C(=O)O; hPhe = N[C@@H](CCc1ccccc1)C(=O)O; NMeβAla = CN(CCC(=O)[*:2])[*:1]; NMeD = CN[C@@H](CC(=O)O)C(=O)O; NMeL = CN[C@@H](CC(C)C)C(=O)O; NMeV = CN[C@H](C(=O)O)C(C)C; d(β3hA) = C[C@@H](N)CC(=O)O; NMeA = CN[C@@H](C)C(=O)O; Piperidide = C1CCN(*)CC1; Abu = CC[C@H](N)C(=O)O; Sar = CNCC(=O)O; tBu = CC(C)(C)*
For each entry below, report its Caco2 Papp value.

Problem: Requested read-out Caco2 Papp, target or system Caco-2 cells, entry CC[C@@H]1NC(=O)[C@H](CC(C)C)N(C)C(=O)[C@H](COC(C)(C)C)NC(=O)[C@H](Cc2ccccc2)N(C)C(=O)[C@H](CC)NC(=O)[C@H](Cc2ccccc2)N(C)C(=O)[C@H](C)N(C)C(=O)[C@H](CC(C)C)N(C)C(=O)[C@H](CC(C)C)NC(=O)CCCN(C)C(=O)C[C@@H](C(=O)N2CCCCC2)NC(=O)[C@H](CC(C)C)N(C)C(=O)[C@H](C(C)C)NC(=O)[C@H](C)N(C)C1=O [pd016] ([NMeGABA]L[NMeL][NMeA][NMeF][Abu][NMeF]S(tBu)[NMeL][Abu][NMeA]V[NMeL]D-Piperidide; lactam N-14)
Result: 0.47 10^-6 cm/sec

Problem: Requested read-out Caco2 Papp, target or system Caco-2 cells, entry CC[C@@H]1NC(=O)[C@H]([C@@H](C)CC)NC(=O)[C@H](Cc2ccccc2)N(C)C(=O)[C@H](CC(C)C)N(C)C(=O)[C@H](CC(C)C)NC(=O)CCN(C)C(=O)C[C@@H](C(=O)N2CCCCC2)NC(=O)[C@H](C(C)C)NC(=O)[C@H](CC(C)C)N(C)C(=O)[C@H](C)N(C)C(=O)[C@H](C(C)C)NC(=O)[C@H](CC(C)C)N(C)C(=O)[C@H](COC(C)(C)C)NC(=O)[C@H](Cc2ccccc2)N(C)C1=O [pd015] ([NMeβAla]L[NMeL][NMeF]I[Abu][NMeF]S(tBu)[NMeL]V[NMeA][NMeL]VD-Piperidide; lactam N-14)
Result: 0.04 10^-6 cm/sec

Problem: Requested read-out Caco2 Papp, target or system Caco-2 cells, entry CC[C@@H]1NC(=O)CCN(C)C(=O)C[C@@H](C)NC(=O)[C@H](CC(C)C)N(C)C(=O)[C@H]([C@@H](C)O)NC(=O)[C@H](C)N(C)C(=O)[C@H]([C@@H](C)CC)NC(=O)[C@H](CCc2ccccc2)NC(=O)[C@H](CC(C)C)N(C)C(=O)[C@H](C)N(C)C(=O)[C@H](Cc2ccccc2)N(C)C(=O)[C@@H]2CCCN2C(=O)[C@H]([C@@H](C)CC)NC(=O)[C@H](CC(C)C)N(C)C1=O [pd051] (cyclo([Abu][NMeL]IP[NMeF][NMeA][NMeL][hPhe]I[NMeA]T[NMeL][d(β3hA)][NMeβAla]))
Result: 0.21 10^-6 cm/sec

Problem: Requested read-out Caco2 Papp, target or system Caco-2 cells, entry CC[C@H](C)[C@H]1C(=O)N[C@@H](CC(C)C)C(=O)N(C)[C@@H](CC(C)C)C(=O)N(C)[C@@H](C(C)C)C(=O)N(C)[C@@H](C)C(=O)N[C@@H]([C@@H](C)O)C(=O)N(C)[C@@H](CC(C)C)C(=O)N[C@H](C)CC(=O)N(C)CCC(=O)N[C@@H](CCc2ccccc2)C(=O)N(C)[C@@H](CC(C)C)C(=O)N2CCC[C@H]2C(=O)N(C)[C@@H](Cc2ccccc2)C(=O)N(C)[C@@H](C)C(=O)N1C [pd060] (cyclo(L[NMeL][NMeV][NMeA]T[NMeL][d(β3hA)][NMeβAla][hPhe][NMeL]P[NMeF][NMeA][NMeI]))
Result: 0.63 10^-6 cm/sec

Problem: Requested read-out Caco2 Papp, target or system Caco-2 cells, entry CC[C@@H]1NC(=O)[C@H](CC(C)C)N(C)C(=O)[C@H](C)NC(=O)CN(C)C(=O)[C@H](CC(C)C)N(C)C(=O)CCN(C)C(=O)[C@H](Cc2ccccc2)N(C)C(=O)[C@H]([C@@H](C)CC)NC(=O)[C@H]([C@@H](C)CC)N(C)C(=O)[C@@H](C)NC(=O)C[C@@H](C(=O)N2CCCCC2)N(C)C(=O)[C@H](Cc2ccccc2)N(C)C(=O)[C@H](C(C)C)NC(=O)[C@H](C)N(C)C1=O [pd076] ([dA][NMeI]I[NMeF][NMeβAla][NMeL][Sar]A[NMeL][Abu][NMeA]V[NMeF][NMeD]-Piperidide; lactam N-14)
Result: <0.10 10^-6 cm/sec
